# EXPERIMENTAL TARGET: adenosine (purine) receptors (Cavia porcellus)
# Construct: Ilea were removed from sacrificed guinea pigs; from tissue; host or cells: guinea pig ileum
# Sequence (P47745 whole entry): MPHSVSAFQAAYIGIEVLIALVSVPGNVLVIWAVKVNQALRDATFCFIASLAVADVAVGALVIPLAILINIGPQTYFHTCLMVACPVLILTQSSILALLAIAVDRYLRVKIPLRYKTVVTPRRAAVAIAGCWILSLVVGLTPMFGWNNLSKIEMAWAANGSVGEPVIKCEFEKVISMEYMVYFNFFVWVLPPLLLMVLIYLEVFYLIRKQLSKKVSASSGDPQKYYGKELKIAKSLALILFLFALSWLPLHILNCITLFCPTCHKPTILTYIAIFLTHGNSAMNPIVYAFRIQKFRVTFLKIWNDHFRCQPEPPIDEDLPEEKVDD
# EXPERIMENT DESCRIPTION: Guinea pig ileum twitch test: purine receptor antagonism against 2-chloroadenosine (Schild regression)
# CONDITION LABEL: agonist 2-chloroadenosine
READOUT: pA2 guinea pig ileum (slope): slope of Schild regression
Lab note: write the figure by itself, no unit.

// query Answer with reported pA2 guinea pig ileum (slope): slope of Schild regression of CC(C)Cn1c(=O)c2nc(-c3ccc(/C=C/C(=O)O)cc3)[nH]c2n(CC(C)C)c1=O [Example 19]
// result 1.0

// query Answer with reported pA2 guinea pig ileum (slope): slope of Schild regression of CCCn1c(=O)c2nc(-c3ccc(/C=C/C(=O)O)cc3)[nH]c2n(CCC)c1=O [Example 6]
// result 0.9

// query Answer with reported pA2 guinea pig ileum (slope): slope of Schild regression of O=C(O)/C=C/c1ccc(-c2nc3c(=O)n(Cc4ccccc4)c(=O)n(Cc4ccccc4)c3[nH]2)cc1 [Example 15]
// result 0.9

// query Answer with reported pA2 guinea pig ileum (slope): slope of Schild regression of CCCn1c(=O)n(C)c(=O)c2nc(-c3ccc(/C=C/C(=O)O)cc3)[nH]c21 [Example 11]
// result 1.0

// query Answer with reported pA2 guinea pig ileum (slope): slope of Schild regression of Cn1c(=O)c2nc(-c3ccc(/C=C/C(=O)O)cc3)[nH]c2n(Cc2ccccc2)c1=O [Example 18]
// result 0.9

// query Answer with reported pA2 guinea pig ileum (slope): slope of Schild regression of CCCCn1c(=O)c2nc(-c3ccc(/C=C/C(=O)O)cc3)[nH]c2n(CCCC)c1=O [Example 14]
// result 1.0
